System: A-431
Assay: Antiproliferative activity against human A431 cells overexpressing EGFR after 72 hrs by MTS assay
Conditions: A-431, 72 h
readout label: IC50 (µM)
Report the value in µM with no unit label.

Look at this compound and give its reported IC50. `C=CC(=O)Nc1cccc(N2C(=O)N(C)Cc3cnc(Nc4ccc(N5CCC(N(C)C)CC5)cc4OC)nc32)c1`
1.39

Need IC50, item `C=CC(=O)Nc1cccc(N2C(=O)N(C)Cc3cnc(Nc4ccc(N(C)C)cc4OC)nc32)c1`
5.62

----------
Molecular target: Epidermal growth factor receptor (Homo sapiens, UniProt P00533, L858R)
Sequence (P00533 25-1210 L858R limits assumed): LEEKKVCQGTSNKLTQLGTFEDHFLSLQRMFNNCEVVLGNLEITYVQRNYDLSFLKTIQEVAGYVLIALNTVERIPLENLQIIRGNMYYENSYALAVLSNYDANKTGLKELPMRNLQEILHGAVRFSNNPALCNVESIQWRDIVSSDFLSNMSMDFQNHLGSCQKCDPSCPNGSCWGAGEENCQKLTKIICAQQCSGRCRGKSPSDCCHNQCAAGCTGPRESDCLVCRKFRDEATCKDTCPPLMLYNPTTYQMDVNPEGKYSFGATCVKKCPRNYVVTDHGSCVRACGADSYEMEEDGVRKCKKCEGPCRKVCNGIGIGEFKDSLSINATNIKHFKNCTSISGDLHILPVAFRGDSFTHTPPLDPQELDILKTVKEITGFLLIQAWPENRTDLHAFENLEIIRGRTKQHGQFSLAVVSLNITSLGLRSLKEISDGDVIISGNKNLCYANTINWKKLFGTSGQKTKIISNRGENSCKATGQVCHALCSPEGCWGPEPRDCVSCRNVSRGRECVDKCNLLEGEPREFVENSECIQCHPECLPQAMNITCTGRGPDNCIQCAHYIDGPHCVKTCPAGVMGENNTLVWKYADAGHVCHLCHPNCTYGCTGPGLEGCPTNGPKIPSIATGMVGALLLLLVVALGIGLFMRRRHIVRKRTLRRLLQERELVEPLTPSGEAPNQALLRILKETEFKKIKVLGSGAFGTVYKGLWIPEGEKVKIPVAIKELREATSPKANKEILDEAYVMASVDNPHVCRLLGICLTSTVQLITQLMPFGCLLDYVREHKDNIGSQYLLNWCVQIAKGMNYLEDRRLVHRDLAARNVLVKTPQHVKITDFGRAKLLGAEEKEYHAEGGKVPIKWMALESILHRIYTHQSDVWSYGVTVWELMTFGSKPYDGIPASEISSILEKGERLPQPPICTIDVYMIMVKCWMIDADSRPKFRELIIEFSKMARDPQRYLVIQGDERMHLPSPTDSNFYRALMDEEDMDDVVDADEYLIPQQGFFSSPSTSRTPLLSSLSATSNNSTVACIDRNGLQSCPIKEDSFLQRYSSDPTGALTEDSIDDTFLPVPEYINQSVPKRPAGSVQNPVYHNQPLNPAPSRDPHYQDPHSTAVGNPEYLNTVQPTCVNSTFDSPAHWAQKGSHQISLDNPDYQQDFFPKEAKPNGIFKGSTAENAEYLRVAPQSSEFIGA
Assay: Binding affinity to EGFR L858R mutant
Reported pKd values are given for each entry in this list.
For clarity, pKd is expressed as the negative log10 of concentration in mol/L.

                                 mol_smiles                          target_or_system  meas_value
0  CCC(=O)Nc1cccc(N2C(=O)N(C)Cc3cnc(Nc4ccc(N5CCN(C)CC5)cc4OC)nc32)c1  Epidermal growth factor receptor (Homo sapiens, UniProt P00533, L858R)        5.80

Would you kindly look at the next entry?
Any idea what pKd was measured for `C=CC(=O)Nc1cccc(N2C(=O)N(Cc3ccccc3)Cc3cnc(Nc4ccc(N5CCN(C)CC5)cc4OC)nc32)c1` ?
8.89

----------
Attribute: IC50
Target: Epidermal growth factor receptor (Homo sapiens, UniProt P00533, L861Q)
Sequence (P00533 25-1210 L861Q limits assumed): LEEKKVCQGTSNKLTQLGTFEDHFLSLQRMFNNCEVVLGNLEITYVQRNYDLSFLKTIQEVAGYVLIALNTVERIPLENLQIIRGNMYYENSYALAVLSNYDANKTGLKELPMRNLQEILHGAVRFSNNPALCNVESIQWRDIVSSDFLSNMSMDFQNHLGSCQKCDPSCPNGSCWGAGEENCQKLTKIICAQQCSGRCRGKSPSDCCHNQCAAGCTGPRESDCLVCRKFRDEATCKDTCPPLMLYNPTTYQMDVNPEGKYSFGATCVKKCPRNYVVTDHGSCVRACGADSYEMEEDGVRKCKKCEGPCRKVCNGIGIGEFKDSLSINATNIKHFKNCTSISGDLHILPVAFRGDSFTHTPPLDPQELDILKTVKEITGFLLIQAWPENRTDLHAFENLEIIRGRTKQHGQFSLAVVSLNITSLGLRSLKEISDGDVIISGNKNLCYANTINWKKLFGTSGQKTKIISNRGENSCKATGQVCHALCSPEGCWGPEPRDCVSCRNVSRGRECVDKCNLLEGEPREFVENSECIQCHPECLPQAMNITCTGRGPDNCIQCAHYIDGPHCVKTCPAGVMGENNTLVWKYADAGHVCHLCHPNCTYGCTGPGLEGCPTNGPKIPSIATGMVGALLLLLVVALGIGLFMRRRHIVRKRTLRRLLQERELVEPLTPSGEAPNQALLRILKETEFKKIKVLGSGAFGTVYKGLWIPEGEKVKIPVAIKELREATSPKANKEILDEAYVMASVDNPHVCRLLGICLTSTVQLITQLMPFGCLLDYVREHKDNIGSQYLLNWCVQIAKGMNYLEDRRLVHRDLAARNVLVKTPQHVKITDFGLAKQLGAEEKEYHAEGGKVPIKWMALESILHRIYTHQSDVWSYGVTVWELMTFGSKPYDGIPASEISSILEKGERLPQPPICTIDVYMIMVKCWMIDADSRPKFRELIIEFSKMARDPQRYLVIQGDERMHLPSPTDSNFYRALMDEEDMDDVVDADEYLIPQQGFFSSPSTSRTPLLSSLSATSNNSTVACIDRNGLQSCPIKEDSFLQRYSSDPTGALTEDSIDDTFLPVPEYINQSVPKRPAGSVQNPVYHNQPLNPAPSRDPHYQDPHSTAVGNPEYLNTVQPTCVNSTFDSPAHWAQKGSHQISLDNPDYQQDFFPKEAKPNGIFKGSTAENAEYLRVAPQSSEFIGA
Assay: Inhibition of EGFR L861Q mutant after 1.5 hr by FRET assay
Dear colleague, please return just the value in nM, with no unit written.

# count of solved cases: 5
>>> df
                                 mol_smiles  readout_label  meas_value
0  C=CC(=O)Nc1cccc(N2C(=O)N(C)Cc3cnc(Nc4ccc(N5CCN(C)CC5)cc4)nc32)c1           IC50        0.56
1  C=CC(=O)Nc1cccc(N2C(=O)N(Cc3ccccc3)Cc3cnc(Nc4ccc(N5CCN(C)CC5)cc4OC)nc32)c1           IC50        0.72
2  C=CC(=O)Nc1cccc(N2C(=O)N(C)Cc3cnc(Nc4ccc(N5CCN(C)CC5)cc4OC)nc32)c1           IC50        1.21
3  C=CC(=O)Nc1cccc(N2C(=O)N(C)Cc3cnc(Nc4ccc(N5CCOCC5)cc4OC)nc32)c1           IC50        12.7
4  C=CC(=O)Nc1cccc(N2C(=O)N(C)Cc3cnc(Nc4ccc(N(C)C)cc4OC)nc32)c1           IC50        6.22

Can you share its IC50? I mean this compound: `C=CC(=O)Nc1cccc(N2C(=O)N(c3ccccc3)Cc3cnc(Nc4ccc(N5CCN(C)CC5)cc4OC)nc32)c1`
0.93

----------
System: A-431
Test: Antiproliferative activity against human A431 cells overexpressing EGFR after 72 hrs by MTS assay
Details: A-431, 72 h
readout label: IC50 (µM)
Give a bare numeral; the unit µM is implied.

Examples with answers:
>>> print(df.to_string())
                                 mol_smiles  meas_value
0  C=CC(=O)Nc1cccc(N2C(=O)N(C)Cc3cnc(Nc4ccc(N5CCN(C)CC5)cc4OC)nc32)c1        0.75
1  C=CC(=O)Nc1cccc(N2C(=O)N(C)Cc3cnc(Nc4ccc(N5CCN(C)CC5)cc4OC(C)C)nc32)c1        2.11

Would you mind telling me what IC50 value was observed for `C=CC(=O)Nc1cccc(N2C(=O)N(C)Cc3cnc(Nc4ccccc4)nc32)c1` ?
6.9

Which IC50 value is on record for `C=CC(=O)Nc1cccc(N2C(=O)N(C)Cc3cnc(Nc4ccc(N5CCN(C)CC5)cc4)nc32)c1` ?
0.55

Could you tell me which IC50 is on file for `C=CC(=O)Nc1cccc(N2C(=O)N(C)Cc3cnc(Nc4ccc(N5CCCN(C)CC5)cc4OC)nc32)c1` ?
2.15

Quick one: IC50 for `C=CC(=O)Nc1cccc(N2C(=O)N(C)Cc3cnc(Nc4ccc(N5CCCCC5)cc4OC)nc32)c1` ?
5.06

Data credit: ChEMBL document CHEMBL2029259
